test system: SR; test: NCI tumour cell line growth inhibition, 48 h
The source made the active and inactive calls. No stated cut-off is given here; in the data, active = GI50 up to about 1.1 µM and inactive = higher.
One label from this list, please: active, inactive

Examples from the recorded data:
{"MOLECULE": "Cc1c(C(=O)C/C(=N/NC(=O)c2ccccc2)C(=O)Nc2ccc(Cl)cc2)[n+]([O-])c2ccccc2[n+]1[O-]", "LABEL VALUE": "inactive"}
{"MOLECULE": "CC[C@@]1(C[C@H]2C[C@@]3(C(=O)OC)c4[nH]c5ccccc5c4CCN3C2=O)COC2(CCCCC2)O1", "LABEL VALUE": "inactive"}
{"MOLECULE": "O=C(/N=N/c1cccc(Cl)c1)NNc1cccc(Cl)c1", "LABEL VALUE": "inactive"}

API: the following record is the query input.
Record request — test call for CC(C)(C)n1c(=O)n2n(c1=O)Cc1cccc3cccc(c13)C2
inactive

---

tested on: SW-620; test: NCI tumour cell line growth inhibition, 48 h
The source made the active and inactive calls. Rule as the data show it: active = GI50 up to about 1.1 µM and inactive = higher.
REPORTED METRIC: GI50

{"COMPOUND": "O=C(Nc1ccccc1)N1C(c2ccccc2)=N[C@@H](c2ccccc2)[C@@H]1c1ccccc1", "GI50": "18.8 µM (inactive)"}
{"COMPOUND": "O=C(N/N=C(\\c1ccccc1)c1ccccn1)NC1CCCCC1", "GI50": "76 µM (inactive)"}

Please turn your attention to the following entry.
Supply measured GI50 of CC[n+]1c(/C=C/c2ccc(N(CCCl)CCCl)cc2)ccc2cc(I)ccc21 in your reply.
0.916 µM (active)

---

tested on: UACC-62; experiment: NCI tumour cell line growth inhibition, 48 h
Active and inactive are the calls of the source. Rule as the data show it: active = GI50 up to about 1.1 µM and inactive = higher.
The entries below are paired with their reported GI50.

Some solved entries appear below for comparison.
{"COMPOUND": "NCCN1C(=O)c2cc(Cl)c(Cl)cc2C1(O)c1ccc(Cl)cc1 (configuration not stated)", "TARGET UNDER TEST": "UACC-62", "GI50": "1.79 µM (inactive)"}
{"COMPOUND": "CCCN(CCC)c1c([N+](=O)[O-])cc(C(=O)N(CC)CC)cc1[N+](=O)[O-]", "TARGET UNDER TEST": "UACC-62", "GI50": "17.7 µM (inactive)"}

Return reported GI50. Input compound: CCOC(=O)c1nnc2c(C#N)c(-c3ccccc3)c(C)n2c1N
23.9 µM (inactive)

Indicate its recorded GI50; the compound in question is c1ccc2c(c1)cc1ccc3cccc4ccc2c1c34
67.9 µM (inactive)

Please list GI50 recorded for the compound N#Cc1nc(-c2cccc(-c3nc(C#N)c(N)o3)n2)oc1N
> 100 µM (inactive)

Output measured GI50 for this item: CCOC(=O)CCNC(=O)c1cc(C)cc2c1Oc1c(cc(C)cc1C(=O)NCCC(=O)OCC)S2
38.5 µM (inactive)

Please supply the value of reported GI50 for the item COc1ccc2nc3cc(Cl)ccc3c(NCCNC(=O)Cn3c(=O)n(C)c(=O)c4c3nc3c(c(=O)n(C)c(=O)n3C)[n+]4[O-])c2c1
> 38.3 µM (inactive)

Dear colleague, please send me the reported GI50 for CCN(CC)Cc1ccc(Nc2c3ccccc3nc3ccccc23)cc1 when you can.
1.81 µM (inactive)

---

test system: Malme-3M; assay: NCI tumour cell line growth inhibition, 48 h
Calls of active or inactive are those of the source. No stated cut-off is given here; in the data, active = GI50 up to about 1.1 µM and inactive = higher.
Would you mind answering with one of these outcomes? active, inactive

{"COMPOUND": "CCN(CC)Cc1ccc(Nc2c3ccccc3nc3ccccc23)cc1", "TARGET UNDER TEST": "Malme-3M", "LABEL VALUE": "inactive"}
{"COMPOUND": "CCOC(=O)c1ccc(N2C(=S)N(C(=O)c3ccccc3)C(=N/c3ccccc3)/C2=N\\c2ccccc2)cc1", "TARGET UNDER TEST": "Malme-3M", "LABEL VALUE": "inactive"}
{"COMPOUND": "Clc1nc2n(c1/C=C/c1cccs1)CCS2", "TARGET UNDER TEST": "Malme-3M", "LABEL VALUE": "inactive"}
{"COMPOUND": "O=C1Oc2cc3c(c4cccc1c24)OCN(c1ccc(Cl)cc1)C3", "TARGET UNDER TEST": "Malme-3M", "LABEL VALUE": "inactive"}
{"COMPOUND": "CCCCC[C@@H]1CCCC2NC(CCCCCO[Si](c3ccccc3)(c3ccccc3)C(C)(C)C)CCC21 (stereo partly specified)", "TARGET UNDER TEST": "Malme-3M", "LABEL VALUE": "inactive"}

What did this assay record as the result for O=S1(=O)c2ccccc2Oc2ccc(C(/C=N/O)=N/O)cc21 ?
active

Field: outcome | Entry: COc1ccc2c(n1)Sc1nc3ccccc3nc1N2
inactive

Called result for C[C@]12C[C@H](c3ccccc3)Nc3ccccc3N1C(c1ccccc1)=NO2
inactive

Status in this test for O=C1CCC(c2nc3ccccc3o2)C(=O)N1 (stereo unspecified) ?
inactive

Give the logged outcome of this assay for the following compound: COC(=O)C1=C(C(=O)OC)C2(CCCCCC2=O)OC1=O (stereo unspecified)
inactive

What did the test return for CCCCc1ccc(Nc2ncc3ncn(COCCO)c3n2)cc1 ?
inactive

Test call, this compound: NCC(=O)NC1(c2cc3ccccc3s2)CCCCC1
inactive

Returns: the outcome recorded for C1=C2C3=[N+](CCCCC3)CC2Cc2ccsc21 (stereo unspecified) in this assay.
inactive

FYI, the data here is from ChEMBL document CHEMBL1201862.
